tested on: ACHN; experiment: NCI tumour cell line growth inhibition, 48 h
Active and inactive are the calls of the source. Cut-off read from the data, not from the text of the source: active = GI50 up to about 1.1 µM and inactive = higher.
Labels: yes (active), no (inactive)

| compound | discrete.label |
| --- | --- |
| COC(=O)[C@@]12C(=O)C=CC(=O)C1C1C(=CC2C)OC2OC3(CCCCC3)OC21 (stereo partly specified) | no |
| Cc1cc([C@H](C#N)c2nc3ccccc3[nH]2)nc(Cl)n1 | no |
| CC(=O)N1C(Nc2ccccn2)CCN1c1ccccc1 (stereo unspecified) | no |
| COc1ccc(OC)c2c(/C=C/c3ccc(N(C)C)cc3)ccnc12 | no |
| O=[N+]([O-])c1cc2c(c([N+](=O)[O-])c1)NCc1ccccc1O2 | no |
| c1ccc2c(c1)SCCC2NC1=NCCO1 (stereo unspecified) | no |
| ClCCCCCc1c2nc(c(CCCCCCl)c3ccc([nH]3)c(CCCCCCl)c3nc(c(CCCCCCl)c4ccc1[nH]4)C=C3)C=C2 | no |
| O=S1(=O)N=C(SCc2ccccc2)N(c2ccccc2)c2ccncc21 | no |
| [N-]=[N+]=Nc1ccc(CNc2cc(=O)[nH]c(=O)[nH]2)cc1 | no |
| CC(=O)OCC1OC(n2c(C)c(C)c(C)c(C#N)c2=S)C(OC(C)=O)C(OC(C)=O)C1OC(C)=O (stereo unspecified) | no |
| CCN(CC)C1CC(O[C@H]2C[C@](O)(C(=O)CO)Cc3c(O)c4c(c(O)c32)C(=O)c2c(OC)cccc2C4=O)OC(C)C1O (stereo partly specified) | yes |
| CC1=C(c2cc(C(=O)Nc3ccc(Cl)c(Cl)c3)nc(N)n2)Sc2ccccc2N1 | no |
| C/C=C\C(CC(=O)NCCC1CN(S(=O)(=O)C(F)(F)F)c2ccccc21)CC(=O)OC (stereo unspecified) | no |
| C/C=C/CP(=O)(c1ccccc1)c1ccccc1 | no |
| CN(C)CCNC(=O)c1cccc2c1Oc1cccc([N+](=O)[O-])c1O2 | no |
| CCOC(=O)c1cc(C2CCN(Cc3ccccc3)C2=O)c(C(=O)/C=C(/C)N)[nH]1 (stereo unspecified) | no |
| CC(=O)[C@@]1(C)CC2(CCN(C)CC2)OC1C (stereo partly specified) | no |
| Cn1c(=O)c2c(nc3n(CCCCl)c(=O)ccn23)n(C)c1=O | no |
| CC(=O)OCC1OC(Nc2nc(O)n(C)c(=O)c2-c2csc(N)n2)C(OC(C)=O)C(OC(C)=O)C1OC(C)=O (stereo unspecified) | no |
| CN(C)CCC(C(=O)C(C)(C)C)c1ccccn1 (stereo unspecified) | no |
| CO/C1=C\C(C)=C\C(C)C(O)C(C)C/C(C)=C/C=C/C(OC)C(C(C)C(O)C(C)C2(O)CC(O)C(C)C(C(C)C)O2)OC1=O (stereo unspecified) | yes |

* * *

test system: K562; experiment: NCI tumour cell line growth inhibition, 48 h
Activity calls are given as the source filed them. Cut-off read from the data, not from the text of the source: active = GI50 up to about 1.1 µM and inactive = higher.
Labels: true (1) for active, false (0) for inactive

| compound | discrete.label |
| --- | --- |
| CCN(CC)CCOC(c1ccccc1)c1ccccc1.CCOC(=O)Nc1ccc(S(=O)(=O)OC)cc1.CCOC(=O)Nc1ccc(S(=O)(=O)OC)cc1.Nc1ccc(C(=O)O)c(O)c1 | false (0) |
| C=CCN1C[C@H](C)N([C@H](c2ccc(C(=O)NC(CC)CC)cc2)c2cccc(OC)c2)C[C@H]1C | false (0) |
| Cc1ccc(C)c(C(=N)c2ccccc2Cc2ccccc2)c1 | false (0) |
| Cc1cccc2c1Oc1cc(Cl)ccc1C2NC(=O)CCN1CCOCC1 (stereo not drawn) | false (0) |
| Cc1ncc(CCl)c2c1OC(C)(C)OC2 | false (0) |
| C/C(=N\Nc1nc2cc(C(F)(F)F)ccc2s1)c1ccccn1 | true (1) |
| O=C1OC(c2ccccc2)=NC1c1ccccc1 (stereo not drawn) | false (0) |
| CNCCCn1c2ccccc2c2c3c(c(-c4ccsc4)cc21)C(=O)NC3=O | false (0) |
| O=C(CSc1nnc[nH]1)C[P+](c1ccccc1)(c1ccccc1)c1ccccc1 | false (0) |
| CC(C)=CCC/C(C)=C/Cc1c(O)ccc2c1[nH]c1cc(O)c(C)cc12 | false (0) |
| CSC(SC)=C1CC(=O)Nc2ccccc2C1=O | false (0) |
| CC1(C)N=C(/C(Cl)=[N+](/[O-])C(=O)c2ccc(F)cc2)C(C)(C)N1O | false (0) |
| CC(=O)N1C(Nc2ccccn2)CCN1c1ccccc1 (stereo not drawn) | false (0) |
| Cc1ccc(/C=C2\Cc3cc(C)c(C)cc3C2=O)c(C(=O)O)c1 | false (0) |
| O=c1c2ccccc2sc2nc(O)nn12 | false (0) |
| CC1=CC(=O)c2c(C=O)c(O)c(O)c(C(C)C)c2C1=O | false (0) |
| C=C(C)C(=O)O[C@@H]1C/C(C)=C\[C@H](OC(C)=O)C[C@](C)(O)/C=C2/OC(=O)C(COC(C)=O)=C21 | true (1) |
| O=[N+]([O-])[C@@H]1C2C=CC(C2)[C@H]1Cl (stereo partly drawn) | false (0) |
| COc1cc(O)c(C(=O)C2Cc3ccccc32)c(OC)c1 (stereo not drawn) | false (0) |
| Cc1ccc([N+](=O)[O-])cc1S(=O)(=O)Nc1ccc(C2=NN(C(=O)c3ccccc3)C(c3cccs3)C2)cc1 (stereo not drawn) | false (0) |
| COC(=O)C1=C(C)N2[C@H](C(=O)O)CO[C@@]2(C)[C@H](C(=O)OC)[C@H]1c1cccc([N+](=O)[O-])c1 | false (0) |
| Oc1ccc(/N=C/c2ccc(/C=N/c3ccc(O)cc3)cc2)cc1 | false (0) |
| COc1ccc(C2=NNC(c3cc4cc(Br)ccc4nc3Cl)C2)cc1 (stereo not drawn) | false (0) |
| CCOC(=O)C(NC(=O)c1ccccc1)(Nc1ccc(S(=O)(=O)Nc2cc(C)nc(C)n2)cc1)C(F)(F)F (stereo not drawn) | false (0) |
| CCN(CCCl)c1cccc(NC(=O)c2ccc(C(=O)Nc3cccc(CN(C)C)c3)cc2)c1 | true (1) |
| c1ccc2c3ccn4ccc5c6ccccc6[nH]c5c4c-3nc2c1 | true (1) |
| O=c1[nH]c2ccccc2c(=O)n1/N=C\c1ccccc1O | false (0) |
| c1ccc(COc2ccc(CC3SCCCS3)cc2)cc1 | false (0) |
| CCN(CC)C(=O)C/C(C)=N/NC(=O)c1ccncc1 | false (0) |
| COc1ccc2c(CC(=O)O)cc(=O)oc2c1 | false (0) |
| Cc1nc(-c2ccccc2)cc2c1c(=O)oc1ccccc12 | false (0) |
| COC(=O)[C@@]12C(=O)C=CC(=O)C1C1C(=CC2C)OC2OC3(CCCCC3)OC21 (stereo partly drawn) | false (0) |
| O=C1CSC(c2cccc(Oc3ccccc3)c2)N1c1ccc(Cl)cc1 (stereo not drawn) | false (0) |
| O=C(N/C=C1\C(=O)Oc2ccccc2C1=O)Oc1ccccc1 | false (0) |
| CN(C)CCC(C(=O)C(C)(C)C)c1ccccn1 (stereo not drawn) | false (0) |
| CN(C)CCN1CCc2c([nH]c3ccccc23)C1c1cccnc1 (stereo not drawn) | false (0) |
| O=C(Cc1ccccc1)Nn1c(-c2ccccc2)nc2ccccc2c1=O | false (0) |
| O=C(O)c1c(-c2cccc3ccccc23)sc(-c2cccc3ccccc23)c1C(=O)O | false (0) |
